# composite z-score per record follows
- assaySystem: Torsin-1A (Homo sapiens) (UniProt O14656)
- Sequence (O14656 whole entry, looked up): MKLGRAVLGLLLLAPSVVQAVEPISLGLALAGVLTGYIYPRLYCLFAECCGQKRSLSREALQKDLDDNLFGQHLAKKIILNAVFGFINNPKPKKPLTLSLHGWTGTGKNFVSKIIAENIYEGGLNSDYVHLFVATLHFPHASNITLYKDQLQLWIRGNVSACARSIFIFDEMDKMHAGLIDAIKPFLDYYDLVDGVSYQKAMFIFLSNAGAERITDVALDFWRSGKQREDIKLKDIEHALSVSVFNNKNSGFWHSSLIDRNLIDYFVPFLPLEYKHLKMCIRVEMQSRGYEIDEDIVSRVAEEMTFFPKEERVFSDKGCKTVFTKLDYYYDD
- protocol: small-molecule binders of mutant TOR1A in lysate, primary screen, cell lysate, small-molecule microarray, COS7 lysate, 635/667 nm fluorescence (AID 1150);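 also: score pools 667 nm emission and signal to noise measuring lysate protein binding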
- appliedConditions: COS7 hTOR1A mutant lysate, 635 nm fluorescence, higher = more signal

compound: COc1cc2c(cc1O)C(c1ccc(CN3CCCC3)cc1)N(Cc1cccc(OC(F)(F)F)c1)CC2 (stereo not drawn)
assaySystem: Torsin-1A (Homo sapiens) (UniProt O14656)
composite z-score: 1.13

compound: COCCOC(=O)N1C(=O)[C@@]2(c3cc(C#CCCO)ccc31)[C@H](C(=O)N1CCN(c3ncccn3)CC1)[C@H]1C(=O)O[C@H](c3ccccc3)[C@H](c3ccccc3)N1[C@@H]2c1ccc(O)cc1
assaySystem: Torsin-1A (Homo sapiens) (UniProt O14656)
composite z-score: 0.522

compound: COc1ccc([Si](C)(C)[C@@H]2[C@@H](CC(=O)N(CCO)Cc3ccccc3)O[C@]3(C(=O)N(Cc4ccc(N5CCC5=O)cc4)c4ccccc43)[C@H]2C)cc1
assaySystem: Torsin-1A (Homo sapiens) (UniProt O14656)
composite z-score: 0.134

----------
- assaySystem: Homeobox protein Hox-A13 (Mus musculus) (UniProt Q62424)
- Sequence (Q62424 whole entry, looked up): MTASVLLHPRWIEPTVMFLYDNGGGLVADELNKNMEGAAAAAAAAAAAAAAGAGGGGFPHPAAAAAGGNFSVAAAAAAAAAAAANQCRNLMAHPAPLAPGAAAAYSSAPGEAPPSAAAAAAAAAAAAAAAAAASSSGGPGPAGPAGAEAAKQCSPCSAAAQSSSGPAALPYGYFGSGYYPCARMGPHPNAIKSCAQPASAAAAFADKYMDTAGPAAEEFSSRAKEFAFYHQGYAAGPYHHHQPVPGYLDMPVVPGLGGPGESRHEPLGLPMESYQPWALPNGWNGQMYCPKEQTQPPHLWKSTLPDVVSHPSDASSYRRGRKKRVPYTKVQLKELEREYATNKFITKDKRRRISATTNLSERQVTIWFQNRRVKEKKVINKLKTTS
- protocol: inhibitors of HoxA13-DNA binding, primary screen, biochemical, fluorescence polarization, labeled oligonucleotide (AID 1185)
- appliedConditions: 15 min, higher = more signal, called active from +8 up or from −8 down
// label = yes if z-score is not less than -2, otherwise no

compound: COCCCNC(=O)[C@@]1(Sc2ccc(C)cc2)CC(=O)N(C2CCCCC2)[C@@H]1c1ccc(CO)cc1I
cat: no

compound: O=C1C2C=CC(C(O)C(c3ccccc3)c3ccccc3)N(Nc3ccccc3)C2C(=O)N1c1ccccc1 (stereo unspecified)
cat: yes

compound: CCCC=C(CCC)[C@@H](NC(=O)c1ccccc1)c1ccc(C(=O)OC)cc1
cat: yes

compound: Cc1ccc(F)cc1S(=O)(=O)N[C@@H]1CCN(Cc2ccc3c(c2)OCO3)C1
cat: no

compound: CC1CC/C=C\[C@H]2OC34C=CCN(c5ccc(Cl)cc5)C(=O)[C@H]3N(CCCO)C(=O)[C@]4(C)C2C(=O)O1 (stereo partly specified)
cat: no

compound: C[C@H]1NC(=O)C([C@@H](C)OCc2ccccc2)NC(=O)[C@@]23C(=O)N[C@@H](Cc4ccccc4)C2[C@H](C)[C@@]2(C)O[C@H]2C3/C=C/C/C=C\CNC1=O (stereo partly specified)
cat: no

compound: COc1ccc(C(O)C2C=CC3C(=O)N(C)C(=O)C3N2Nc2ccc([N+](=O)[O-])cc2[N+](=O)[O-])cc1OCc1ccccc1 (stereo unspecified)
cat: no

compound: Cc1ccc(S[C@]2(C(=O)NCCN3CCOCC3)CC(=O)N(C3CCCCC3)[C@@H]2c2ccc(CO)cc2I)cc1
cat: no

compound: C=CCNC(=O)[C@@H]1[C@H]2C(=O)O[C@H](c3ccccc3)[C@H](c3ccccc3)N2[C@H](c2ccccc2OCCO)[C@@]12C(=O)N(C(=O)OCCOC)c1ccc(C#CCCO)cc12
cat: yes

compound: COCCOC(=O)N1C(=O)[C@@]2(c3cc(C#CCC(C(=O)OC)C(=O)OC)ccc31)[C@H](C(N)=O)[C@H]1C(=O)O[C@H](c3ccccc3)[C@H](c3ccccc3)N1[C@@H]2c1ccc(OCCO)cc1
cat: yes

compound: NCCCC[C@@H]1NC(=O)[C@H]2C[C@@H](C(=O)NCc3ccc(F)cc3)[C@@H](c3ccc(O)cc3)N2C1=O
cat: no

compound: CCOC(=O)C1=CC[C@@H](c2ccccc2)N(S(=O)(=O)C[Si](C)(C)C)[C@H]1c1ccccc1
cat: yes

compound: CCCCCCc1nc(-c2ccc(OC)nc2)cc2c1[Si](C(C)C)(C(C)C)OC2
cat: no

compound: CCCC[C@@H]1C[C@H]1[C@@H](NC(=O)c1ccc(C(F)(F)F)cc1)c1ccc(C(=O)OC)cc1
cat: yes

compound: CCCCC(O)C1C=CC2C(=O)NC(=O)C2N1Nc1ccccn1 (stereo unspecified)
cat: yes

compound: COc1ccc([Si](C)(C)[C@H]2[C@H](CC(=O)N3Cc4ccccc4C[C@H]3CO)O[C@@]3(C(=O)N(Cc4cccc(N5C(=O)c6cccc7cccc5c67)c4)c4ccccc43)[C@@H]2C)cc1
cat: no

----------
- protocol: compound binding in COS7 lysate, probe aLAP1, primary screen, cell lysate, small-molecule microarray (AID 1124);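 also: lysate comes from COS7 cells expressing LAP1 and is applied at 0.3 µg/mL; score merges spot fluorescence near 667 nm with signal-to-noise over triplicate slides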
- appliedConditions: probe aLAP1, fluorescence, higher = more signal
composite z-score values for the compounds below.

compound: COCCOC(=O)N1C(=O)[C@@]2(c3cc(C#Cc4ccc(OC)cc4)ccc31)[C@H](C(=O)Nc1nc3ccccc3s1)[C@H]1C(=O)O[C@H](c3ccccc3)[C@H](c3ccccc3)N1[C@@H]2c1ccccc1OCCO
composite z-score: 0.304
//
compound: CCCC[C@@H]1C[C@H]1[C@@H](NC(=O)Cc1ccccc1)c1ccc(Cl)cc1
composite z-score: 0.323
//
compound: COCCOC(=O)N1C(=O)[C@@]2(c3cc(C#CC4(O)CCCCCC4)ccc31)[C@H](c1ccc(OCCO)cc1)N1[C@H](c3ccccc3)[C@H](c3ccccc3)OC(=O)[C@H]1[C@@H]2C(=O)N1CCCCCCC1
composite z-score: 1.02
//
compound: COC(=O)c1ccc([C@H](NC(=O)c2ccccc2)[C@]2(C)C[C@H]2C2CCCCC2)cc1
composite z-score: 0.416
//
compound: CC(C)C[C@@H]1NC(=O)[C@H]2C[C@@H](C(=O)NCCCCCNC(=O)CS)[C@@H](c3ccc(O)cc3)N2C1=O
composite z-score: 0.873
//
compound: CO[C@H]1O[C@H](CO)[C@@H](OC(=O)Nc2ccc3c(c2)OCO3)[C@@H]2OC(=O)[C@@H](Cc3ccccc3)C/C=C/C[C@H](Cc3ccccc3)C(=O)O[C@@H]12
composite z-score: 0.48
//
compound: C=CCC(OC(C)=O)[C@@H]1[C@@H](N(Cc2ccc(-c3cccc(C(F)(F)F)c3)o2)C(=O)c2cccc3ccccc23)c2cc(OCCCO)ccc2N1C(=O)c1ccc2ccccc2n1 (some centres undefined)
composite z-score: -0.202
//
compound: Cc1c(-c2ccc(-c3ccc(Cl)c(Cl)c3)o2)nc(-c2ccccc2)c2c1CO[Si]2(C(C)C)C(C)C
composite z-score: -0.213
//
compound: CC(C)(C)N1CC=CC23O[C@@H]4/C=C\CCCOC(=O)C4[C@H]2C(=O)N(CCCCCCO)[C@@H]3C1=O (some centres undefined)
composite z-score: 0.495
//
compound: COc1ccc(CCNC(=O)[C@@H]2c3ccccc3C(=O)N(CC34CC5CC(CC(C5)C3)C4)[C@H]2c2ccc(CO)cc2)cc1
composite z-score: -0.0344
//
compound: [N-]=[N+]=Nc1ccccc1[C@@H]1OC(c2ccc(OCCCO)cc2)=N[C@]1(Cc1ccccc1)C(N)=O
composite z-score: -0.247
//
compound: CC[C@H](C)C(=O)O[C@H]1CC[C@]2(C)C3=C(CCC2C1(C)C)[C@]1(C)CC[C@H]([C@H](C)CCCC(C)C)[C@@]1(C)CC3 (some centres undefined)
composite z-score: -0.329
//
compound: COC(=O)[C@@]1(Cc2ccc(F)cc2)[C@H]2c3cc(C(=O)N(C)C)n(CCn4cc([N+](=O)[O-])nc4C)c3C[C@H]2CN1C(=O)c1ccccc1
composite z-score: 0.317
//
compound: COCC1=C([C@H](O)CCc2ccccc2)[C@H](CO)n2c(=O)n(-c3ccccc3)c(=O)n2C1
composite z-score: -0.469

----------
- protocol: HepG2 cell viability effects, profiling panel, calcein-AM fluorescence, 48 h, basal (AID 1164); also: test concentration not given here
- appliedConditions: higher = more signal
Binary classification by z-score, with 0.05 as an inclusive lower bound for fulfilled; all other cases are not fulfilled.

compound: CCOC(=O)C[C@H]1[C@H](OC(=O)c2ccc(-c3ccccc3)cc2)[C@@H](NC(=O)c2ccc3ccccc3c2)c2cc(OCCCO)ccc2N1C(=O)c1ccccc1
cat: not fulfilled

compound: COC(=O)c1ccc([C@H](NC(=O)c2ccccc2)[C@]2(C)C[C@H]2C2CCCCC2)cc1
cat: not fulfilled

compound: C=CCNC(=O)[C@H]1[C@@H]2C(=O)O[C@@H](c3ccccc3)[C@@H](c3ccccc3)N2[C@@H](c2ccccc2OCCO)[C@]12C(=O)N(C(=O)OCCOC)c1ccccc12
cat: not fulfilled

compound: CC(C)C[C@@H]1NC(=O)C([C@@H](C)OCc2ccccc2)NC(=O)[C@@]23C(=O)N[C@@H](Cc4ccccc4)C2[C@H](C)[C@@]2(C)O[C@H]2C3/C=C/CC/C=C/CNC1=O (some centres undefined)
cat: fulfilled

compound: COC(=O)C1(CC(C)C)C=C2C(=C(C(C)C)C(=O)C2C)CN1 (centres undefined)
cat: not fulfilled

compound: CN(C)C(=O)[C@@]1(CCS(=O)(=O)c2ccccc2)N=C(c2ccc(OCCCO)cc2)O[C@H]1c1ccccc1N=[N+]=[N-]
cat: fulfilled

compound: CCCC[C@H]1OB(O)C[C@H]2C1=C(COC)C[C@H]1C(=O)C=CC(=O)[C@H]12
cat: not fulfilled

compound: CCCCC(O)C1C=CC2C(=O)NC(=O)C2N1Nc1ccccn1 (centres undefined)
cat: fulfilled

compound: CC(C)(C)N1CC=CC23O[C@@H]4/C=C\CCCOC(=O)C4[C@H]2C(=O)N(CCCCCCO)[C@@H]3C1=O (some centres undefined)
cat: fulfilled
